Reference source: patent US20260184782A1

Below is a list of entries, each paired with its recorded Kd value.
Molecular target: T1, recombinant human TIGIT (human, UniProt Q495A1 22-141, limits assumed)
T1 construct: recombinant human TIGIT used in Carterra SPR; also called hTIGIT
T1 sequence (looked up): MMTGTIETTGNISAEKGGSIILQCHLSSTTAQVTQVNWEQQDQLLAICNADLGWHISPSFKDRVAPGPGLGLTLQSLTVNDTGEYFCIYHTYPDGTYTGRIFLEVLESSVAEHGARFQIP
Test: SPR Carterra, average
# answer = value followed by unit

binder	Kd
TIGIT-SC1 (Fc fusion, VHH-Fc fusion in assay) VHH: EVQLVESGGGLVQPGGSLRLSCAASGFTLNDYAMGWFRQAPGKERELVAWIARYDGSTLYADSVKGRFTISADNSKNTAYLQMNSLKPEDTAVYYCARVDWALNAAPFDYWGQGTLVTVSS	0.467 nM
TIGIT-SC29 (Fc fusion, VHH-Fc fusion in assay) VHH: EVQLVESGGGLVQPGGSLRLSCAASGFTLENNMMGWFRQAPGKERELVAAIDWSGGSTIYADSVKGRFTISADNSKNTAYLQMNSLKPEDTAVYYCARGHDYGDYIAYWGQGTLVTVSS	59.2 nM

Enquiry: Need Kd, item TIGIT-SC104 (Fc fusion, VHH-Fc fusion in assay) VHH: EVQLVESGGGLVQPGGSLRLSCAASGFTFSTYTMGWFRQAPGKEREFVAAISPSGNTYYADSVKGRFTISADNSKNTAYLQMNSLKPEDTAVYYCARWGGITFGGVYPLDYWGQGTLVTVSS
Return: 15.2 nM
